Let's look at some molecules and their measured PPAR-γ induction ratio.
Target: PPAR-γ (Homo sapiens, UniProt P37231)
Construct: expressed in transfected cells; host or cells: CV-1 (African green monkey kidney)
Sequence (P37231 204-505): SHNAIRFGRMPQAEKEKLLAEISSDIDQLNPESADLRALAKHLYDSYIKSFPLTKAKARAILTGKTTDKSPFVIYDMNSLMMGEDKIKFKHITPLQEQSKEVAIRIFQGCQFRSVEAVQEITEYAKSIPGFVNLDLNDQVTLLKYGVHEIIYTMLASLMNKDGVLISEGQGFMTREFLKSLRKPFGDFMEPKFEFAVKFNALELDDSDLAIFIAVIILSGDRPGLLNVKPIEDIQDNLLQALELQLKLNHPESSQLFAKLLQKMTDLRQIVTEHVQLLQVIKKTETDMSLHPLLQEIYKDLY
Experiment: PPAR-γ reporter assay (GAL4 luciferase, CV-1 cells)
Assay type: cell-based
Details: induction ratio of luciferase activity at 25 μM, activity without tested compound = 1, hGR-GAL4-hPPAR-γ
The answer should be written as a number, with no unit following it.

See these solved cases before continuing.
CCCCCCCCC(=O)N[C@H](C(=O)O)[C@@H](C)CC [Example 2] ... 12.5
CCCCCCCCCCCC(=O)N[C@H](C(=O)NC1CCCCC1)C(C)C (racemic) [Example 23, N-lauroyl-L-valine cyclohexylamide] ... 21.3
CCCCCCCCCCCC(=O)N[C@@H](CCSC)C(=O)O [Example 19] ... 20.9
CCCCCCCCCCCC(=O)NC(C(=O)O)C(C(F)(F)F)C(F)(F)F (racemic) [Example 34] ... 2.7
C=CCCCCCCCCC(=O)N[C@H](C(=O)O)C(C)C [Example 10] ... 15.3

Qu. Entry C=CCCCCCCCCC(=O)N[C@@H](Cc1ccccc1)C(=O)O [Example 8] : reported PPAR-γ induction ratio = ?
Ans. 4.4

Qu. Entry CCCCCCCCCCCCCCCCCC(=O)N[C@H](C(=O)O)C(C)C [Example 30] : reported PPAR-γ induction ratio = ?
Ans. 13.7

Qu. Entry CCCCCCCCCCCC(=O)N[C@@H](Cc1ccc(OC)cc1)C(=O)O [Example 37] : reported PPAR-γ induction ratio = ?
Ans. 19.5

Qu. Entry CCCCCCCCCCCC(=O)N[C@H](C(=O)O)C1CCCCC1 [Example 39] : reported PPAR-γ induction ratio = ?
Ans. 11.2
